- target-desc: hTGR5 (Homo sapiens, UniProt Q8TDU6)
- Construct: expressed in transfected cells; host or cells: 293T cells, transient transfection with pTGR5 (gift from Prof. Johan Auwerx)
- Sequence (Q8TDU6 1-330): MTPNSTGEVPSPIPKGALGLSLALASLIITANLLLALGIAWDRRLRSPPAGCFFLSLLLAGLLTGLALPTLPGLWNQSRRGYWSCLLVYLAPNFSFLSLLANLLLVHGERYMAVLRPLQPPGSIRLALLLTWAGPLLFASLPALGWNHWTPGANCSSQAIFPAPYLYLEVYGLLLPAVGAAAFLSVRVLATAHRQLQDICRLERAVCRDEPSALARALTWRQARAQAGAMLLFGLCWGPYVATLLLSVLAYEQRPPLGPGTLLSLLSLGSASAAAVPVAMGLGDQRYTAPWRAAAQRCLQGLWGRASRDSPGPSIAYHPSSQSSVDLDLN
- assay-overview: human TGR5 CRE-luciferase assay in co-transfected 293T cells
- Format: cell-based
- applied-conditions: CRE-luciferase, 293T cells; read-out: TGR5 EC50
- Experimental: For human TGR5 luciferase (luc) assay, 293T cells were co-transfected with pCRE-luc, pTGR5 (kind gift from Prof. Johan Auwerx, Ecole Polytechnique Fédérale de Lausanne, Lausanne, Switzerland) and pRenilla (Promega, USA). WB403 was added 5 h later. Cells were harvested after 16 h and subjected to luciferase analysis on Lumistar Optima chemiluminescent detector (BMG labtech, Germany). […] Increase of the intracellular Ca^2+ concentration was monitored by Flexstation 3 system (Molecular Devices, USA). […]
parameter-measured: pEC50
Recall that pEC50 is obtained by taking minus log10 of the concentration measured in molar.

Sample `CCc1cc(-c2nc(C)c(COCc3ccc(Br)cc3)s2)ccn1` — what was its pEC50?
5.26

----------
- assay-overview: pharmacokinetic test in Sprague-Dawley rats
- Format: in vivo
- applied-conditions: male, plasma, oral, rat, p.o. 40 mg/kg vs i.v. 40 mg/kg, from AUC0-∞
parameter-measured: bioavailability (%)
A number alone suffices; assume %.

Sample `CCc1cc(-c2nc(C)c(COCc3ccc(Br)cc3)s2)ccn1` — what was its bioavailability?
12

----------
- assay-overview: pharmacokinetic test in Sprague-Dawley rats
- Format: in vivo
- applied-conditions: male, plasma, iv, i.v. 40 mg/kg, rat, mean ± SEM, n = 5
parameter-measured: AUC(0-inf)
Answers without a unit are incomplete; give the number and then its unit.

Sample `CCc1cc(-c2nc(C)c(COCc3ccc(Br)cc3)s2)ccn1` — what was its AUC(0-inf)?
26900 ng·h/mL

----------
- assay-overview: pharmacokinetic test in Sprague-Dawley rats
- Type: in vivo
- applied-conditions: male, plasma, po, p.o. 40 mg/kg, rat, mean ± SEM, n = 5
parameter-measured: Cmax (ng/mL)
A number alone suffices; assume ng/mL.

Sample `CCc1cc(-c2nc(C)c(COCc3ccc(Br)cc3)s2)ccn1` — what was its Cmax?
980

----------
- target-desc: hTGR5 (Homo sapiens, UniProt Q8TDU6)
- Construct: expressed in transfected cells; host or cells: 293T cells, transient transfection with pTGR5 (gift from Prof. Johan Auwerx)
- assay-overview: human TGR5 CRE-luciferase assay in co-transfected 293T cells
- Type: cell-based
- applied-conditions: CRE-luciferase, 293T cells, Fig 1C; read-out: EC50, hTGR5 targeted CRE-luciferase activity
parameter-measured: pEC50
Recall that pEC50 is obtained by taking minus log10 of the concentration measured in molar.

Sample `CCc1cc(-c2nc(CCOCc3ccc(Br)cc3)cs2)ccn1` — what was its pEC50?
5.89
